Taken from PubChem BioAssay (EPA / NIEHS).

test: ATG_ISRE_CIS: Attagene CIS-FACTORIAL HepG2 Assay for human Interferon Regulatory Factor 1 (IRF1) binding to an Interferon-Stimulated Response Element (ISRE) (AID 2282948); conditions: HepG2 ISRE cis-reporter (Attagene), mRNA transcription readout; actives raise or lower the signal
Calls of active or inactive are those of the source. How the source made its calls: active means hit-call score of the fitted dose curve at least 0.9, where 1 is the maximum; inactive means score below 0.9.
Could you please pick one outcome from this set? true (1) = active, false (0) = inactive

molecule: O=c1cc[nH]c(=S)[nH]1
group-label: false (0)
--
molecule: CC(C)(Oc1ccc(C2CC2(Cl)Cl)cc1)C(=O)O (stereo not drawn)
group-label: false (0)
--
molecule: CCOC(=O)CC
group-label: false (0)
--
molecule: Cc1cccc(N(C)C(=S)Oc2ccc3ccccc3c2)c1
group-label: false (0)
--
molecule: OC1CCCCCCCCCCC1
group-label: false (0)
--
molecule: COc1cc(NC(=O)CC(C)=O)c(OC)cc1Cl
group-label: false (0)
--
molecule: COc1ccc2nc(N)sc2c1
group-label: false (0)
--
molecule: COC(=O)/C=C/C(C)=C\C=C\C(C)=C\C=C\C=C(C)\C=C\C=C(C)\C=C\C(=O)O
group-label: false (0)
--
molecule: O=C1CCCC(=O)O1
group-label: false (0)
--
molecule: NC(=O)c1ccccc1O
group-label: false (0)

-- ask So what was the verdict on `CN(C)CCCN(C)C` in this test?
-- reply false (0)

-- ask So what was the verdict on `Nc1ccc2cc3ccccc3cc2c1` in this test?
-- reply false (0)

-- ask So what was the verdict on `CC1=CC[C@H]2C[C@@H]1C2(C)C` in this test?
-- reply false (0)

-- ask So what was the verdict on `CC(C)C1=CC2=CC[C@@H]3[C@](C)(CCC[C@@]3(C)C(=O)O)[C@H]2CC1` in this test?
-- reply false (0)

-- ask So what was the verdict on `C=CC(=O)OCCOC(=O)C=C` in this test?
-- reply true (1)

-- ask So what was the verdict on `O=C(/C=C/C=C/c1ccc2c(c1)OCO2)N1CCCCC1` in this test?
-- reply true (1)

-- ask So what was the verdict on `C=CC(=O)NC(C)(C)CS(=O)(=O)O` in this test?
-- reply false (0)

-- ask So what was the verdict on `CC1(C)O[C@@H]2C[C@H]3[C@@H]4C[C@H](F)C5=CC(=O)C=C[C@]5(C)[C@@]4(F)[C@@H](O)C[C@]3(C)[C@]2(C(=O)CO)O1` in this test?
-- reply false (0)

----------
Read-out: Macrophage colony-stimulating factor (MCSF), CSF1 (gene 1435)
Experiment: BSK_hDFCGF_MCSF: BioMAP Diversity Plus: hDFCGF Assay for Macrophage colony-stimulating factor (MCSF) Biomarker Activity (AID 2283060)
Conditions: primary human foreskin fibroblasts; actives raise or lower the signal
Procedure: BSK_hDFCGF is a cell-based, multiplexed-readout assay that uses foreskin fibroblast, a human skin primary cell, with measurements taken at 24 hours after chemical dosing in a 96-well plate.BSK_hDFCGF_MCSF is an assay component measured in the BSK_hDFCGF assay. It measures M-CSF antibody related to regulation of gene expression using ELISA technology.Data from the assay component BSK_hDFCGF_MCSF was analyzed into 1 assay endpoint. […]
Active and inactive are the calls of the source. How the source made its calls: active means hit-call score of the fitted dose curve at least 0.9, where 1 is the maximum; inactive means score below 0.9.
Could you please pick one outcome from this set? 1 (active), -1 (inactive)

molecule: COc1ccc2nc(N)sc2c1
group-label: -1

molecule: CN1C(=O)N(C)C(O)C1O (stereo unspecified)
group-label: -1

Now examine the next entry.
-- ask So what was the verdict on `C=CC=CC=CCCCCC` in this test?
-- reply -1
